Value source: PubChem BioAssay (NCI)

Tested on: ACHN renal
assay.comment: NCI tumour cell line growth inhibition, 48 h
property.measured: TGI

• C/C(=N\N=C(\N)SB(F)F)c1ccc2ccccc2c1 = > 100 µM
• COc1ccc2c(=O)cc(-c3ccccc3)[nH]c2c1 = > 100 µM
• COC(=O)c1cc2c3ccccc3n3c(=O)c4cc5ccc(N(S(=O)(=O)c6ccc(C)cc6)S(=O)(=O)c6ccc(C)cc6)cc5nc4c(n1)c23 = 82.6 µM
• Cn1c(C(=O)c2ccncc2)cc2ccccc21 = > 100 µM
• CCN1CCC(O)(c2ccc(Oc3ccc(F)cc3)cc2)C(C(=O)c2ccc(Oc3ccc(F)cc3)cc2)C1 (stereo not drawn) = 26.8 µM
• O=C(NCCN1CCOCC1)c1cn2c(ccc3sc4ccccc4c(=O)c32)n1 = > 100 µM
• CN(CCCCCl)P(=O)(OCCS(=O)(=O)CC(NC(=O)CCC(N)C(=O)O)C(=O)NC(C(=O)O)c1ccccc1)OCC1OC(n2ccc(N)nc2=O)C(F)(F)C1O (stereo not drawn) = > 33.8 µM
• Nc1nc(Cl)c(N)c(NCC2(CO)CC2)n1 = > 100 µM
• Cc1nc(CC#N)n[nH]1 = > 100 µM
• COC(=O)c1ccc(/C=C2\Oc3ccccc3C2=O)cc1 = > 100 µM
• CCCC(CCC(N)=O)(CCC(N)=O)[N+](=O)[O-] = > 100 µM
• O=C1CC2CC3OC3[C@H]3c4cc5c(cc4C(=O)N1C23)OCO5 (stereo partly drawn) = > 100 µM
• CCCCCCCCCCCCCCCCNC(=O)C(=O)/C=C(\O)c1ccc(C)cc1 = > 10 µM
• Cc1ccc(NC(=O)CCc2nc(N)nc(N)c2-c2ccccc2)cc1C = > 100 µM
• O=C(/C=C/c1cccc(Oc2ccccc2)c1)NCc1ccc(C(=O)NCc2ccccc2)cc1 = > 100 µM
• CC(=O)c1c(C)nc(SSc2nc(C)c(C(C)=O)c(-c3ccc(Cl)cc3)c2C#N)c(C#N)c1-c1ccc(Cl)cc1 = > 150 µg/mL
• CN(C)c1ccc(C=NCC2CCCN3CCCCC23)cc1 (stereo not drawn) = > 100 µM
• COc1cc2nc(SCc3cc(OC)c(OC)c(OC)c3)n(Cc3ccccc3)c(=O)c2cc1OC = 24.1 µM
